tested on: HCC-2998 colon; assay: NCI tumour cell line growth inhibition, 48 h
Measured attribute: TGI (µM)

>  <Molecule>
Cc1ccc([N+](=O)[O-])cc1N=NC(=O)NNc1cc([N+](=O)[O-])ccc1C

>  <Unit annotation>
µM

>  <Readout qualifier>
=

>  <Value>
58

$$$$
>  <Molecule>
COc1ccc(-c2nn(-c3cccc(Cl)c3)cc2-c2cc(-c3ccccc3)[nH]c(=O)c2C#N)cc1

>  <Unit annotation>
µM

>  <Readout qualifier>
>

>  <Value>
50

$$$$
>  <Molecule>
O=c1[nH]cnc(NC2C=C(CO)C(O)C2O)c1[N+](=O)[O-] (configuration not stated)

>  <Unit annotation>
µM

>  <Readout qualifier>
>

>  <Value>
100

$$$$
>  <Molecule>
C=C1c2cc3c(cc2CC12Cc1cc4c(cc1C2=O)CCC4)CCC3 (configuration not stated)

>  <Unit annotation>
µM

>  <Readout qualifier>
>

>  <Value>
100

$$$$
>  <Molecule>
O=C(NCCCN(CCCCN(CCCNC(=O)C(F)(F)F)Cc1ccc2ccccc2c1)Cc1ccc2ccccc2c1)C(F)(F)F

>  <Unit annotation>
µM

>  <Readout qualifier>
=

>  <Value>
2.93

$$$$
>  <Molecule>
c1coc(-c2c3ccc(=[N+]4CCCCC4)cc-3oc3cc(N4CCCCC4)ccc23)c1

>  <Unit annotation>
µM

>  <Readout qualifier>
=

>  <Value>
0.331

$$$$
>  <Molecule>
CCNC(=O)/C(=C/c1ccc(OC)cc1)c1cc(OC)c(OC)c(OC)c1

>  <Unit annotation>
µM

>  <Readout qualifier>
>

>  <Value>
39.3

$$$$

* * *

test system: KM20L2 colon; assay: NCI tumour cell line growth inhibition, 48 h
Parameter TGI: see the listing below.

>  <Molecule>
CC(=O)N1CCN(c2ccc(OCC3COC(Cn4ccnc4)(c4ccc(Cl)cc4Cl)O3)cc2)CC1 (stereo unspecified)

>  <Readout qualifier>
>

>  <TGI (µM)>
100

$$$$
>  <Molecule>
O=C(CN(c1ccccc1)c1ccccc1)N1c2ccccc2C2C=CC=CC21 (stereo unspecified)

>  <Readout qualifier>
=

>  <TGI (µM)>
55.4

$$$$
>  <Molecule>
CCOC(=O)NC(=O)c1cn(C2CCCCC2)c(=O)[nH]c1=O

>  <Readout qualifier>
>

>  <TGI (µM)>
100

$$$$
>  <Molecule>
NC(=O)C(=O)CC(=O)c1ccccc1NC1=CC(=O)C(=O)c2ccccc21

>  <Readout qualifier>
>

>  <TGI (µM)>
100

$$$$
>  <Molecule>
CC(C(=O)N1C(=O)N(C(=O)C(C)C(O)c2ccccc2)C2CCCCC21)C(O)c1ccccc1 (stereo unspecified)

>  <Readout qualifier>
>

>  <TGI (µM)>
100

$$$$
>  <Molecule>
CC12CCC3C(CCC4CC(OC(=O)Cc5ccc(N(CCCl)CCCl)cc5)CCC43C)C1CCC(=O)N2 (stereo unspecified)

>  <Readout qualifier>
=

>  <TGI (µM)>
31.2

$$$$
>  <Molecule>
COc1ccc(-c2oc(/C=N/NC(N)=S)c([N+](=O)[O-])c2-c2ccc(OC)c(OC)c2)cc1OC

>  <Readout qualifier>
=

>  <TGI (µM)>
92.4

$$$$
>  <Molecule>
Nc1c(-c2ccccc2-c2c(N)[n+]([O-])c3ccccc3[n+]2[O-])[n+]([O-])c2ccccc2[n+]1[O-]

>  <Readout qualifier>
>

>  <TGI (µM)>
100

$$$$
>  <Molecule>
CC1=NN(C(=O)CC(=O)Nc2ccccc2F)C(=O)C1N=Nc1ccccc1[N+](=O)[O-] (stereo unspecified)

>  <Readout qualifier>
>

>  <TGI (µM)>
100

$$$$
>  <Molecule>
CCNC(=O)/C(=C/c1ccc(OC)cc1)c1cc(OC)c(OC)c(OC)c1

>  <Readout qualifier>
=

>  <TGI (µM)>
13.5

$$$$
>  <Molecule>
CC(O)CCCOC(c1ccccc1)(c1ccccc1)c1ccccc1 (stereo unspecified)

>  <Readout qualifier>
=

>  <TGI (µM)>
22.3

$$$$

* * *

Parameter TGI: see the listing below.
tested on: HT29 colon; assay: NCI tumour cell line growth inhibition, 48 h

>  <Molecule>
CN(Cc1ccccc1)c1cc(=O)n(C)c(=O)[nH]1

>  <TGI>
> 100 µM

$$$$
>  <Molecule>
CCN1CCCC(NCc2c3ccccc3c(CNC3CCCN(CC)C3)c3ccccc23)C1 (stereo unspecified)

>  <TGI>
> 37.5 µM

$$$$
>  <Molecule>
Clc1ccc(CSCCc2ccncc2)cc1Cl

>  <TGI>
31.2 µM

$$$$
>  <Molecule>
CC1=NN(C(=O)CC(=O)Nc2ccccc2F)C(=O)C1N=Nc1ccccc1[N+](=O)[O-] (stereo unspecified)

>  <TGI>
> 100 µM

$$$$
>  <Molecule>
CCCCn1cnc2c(c(CC#N)nn2-c2ccccc2)c1=N

>  <TGI>
> 100 µM

$$$$
>  <Molecule>
O=C1NCCS(=O)(=O)N[C@@H](CC2=CC=CCC2)C(=O)N2CCCC12 (stereo partly specified)

>  <TGI>
> 100 µM

$$$$
>  <Molecule>
CC(C)(C)OC(=O)NCCC(N)=S

>  <TGI>
> 100 µM

$$$$
>  <Molecule>
COc1nc2ncc([C@@H](OC(C)=O)[C@@H](COC(C)=O)OC(C)=O)nc2c(=O)[nH]1

>  <TGI>
> 100 µM

$$$$
>  <Molecule>
O=C1c2ccccc2-c2c1c1ccccc1c(=O)n2CCN1CCNCC1

>  <TGI>
8.02 µM

$$$$
>  <Molecule>
N=C(N)c1ccc(-c2ccc(-c3cccs3)s2)cc1

>  <TGI>
2.6 µM

$$$$
>  <Molecule>
O=C(CN(c1ccccc1)c1ccccc1)N1c2ccccc2C2C=CC=CC21 (stereo unspecified)

>  <TGI>
> 56.5 µM

$$$$

* * *

Parameter TGI: see the listing below.
tested on: HOP-62 NSCLC; assay: NCI tumour cell line growth inhibition, 48 h

>  <Compound>
CC(C)(C)OC(=O)NCCC(N)=S

>  <Readout qualifier>
>

>  <TGI, µM>
100

$$$$
>  <Compound>
O=C(NC(COC(=O)C(Cc1ccccc1)NC(=O)c1ccccc1)Cc1ccccc1)c1ccccc1 (configuration not stated)

>  <Readout qualifier>
>

>  <TGI, µM>
50

$$$$
>  <Compound>
CC(C)CCC[C@@H](C)C1CCC2[C@@H]3CC=C4C[C@@H](C(=O)NCCN(C)C)CC[C@]4(C)C3CC[C@@]21C (some centres not stated)

>  <Readout qualifier>
=

>  <TGI, µM>
61.2

$$$$
>  <Compound>
CCCCNC(=S)N/N=C/c1cccc(C)n1

>  <Readout qualifier>
=

>  <TGI, µM>
55.2

$$$$
>  <Compound>
O=C(CN(c1ccccc1)c1ccccc1)N1c2ccccc2C2C=CC=CC21 (configuration not stated)

>  <Readout qualifier>
=

>  <TGI, µM>
41.5

$$$$
>  <Compound>
N/C(=N\S(=O)(=O)c1c(C(F)(F)F)cccc1C(F)(F)F)Nc1ccc(Cl)cc1

>  <Readout qualifier>
>

>  <TGI, µM>
100

$$$$
>  <Compound>
COC(=O)/C(=N/O)C(C(=O)C=C(C)C)C(=O)C(=O)Nc1nc2ccc([N+](=O)[O-])cc2s1 (configuration not stated)

>  <Readout qualifier>
>

>  <TGI, µM>
100

$$$$
>  <Compound>
ClCCN(CCCl)c1ccc(CNc2ccccc2)cc1

>  <Readout qualifier>
>

>  <TGI, µM>
100

$$$$
>  <Compound>
COC(=O)CN1c2nc(C#N)c(C#N)nc2N(CC(=O)OC)c2nc(C#N)c(C#N)nc21

>  <Readout qualifier>
=

>  <TGI, µM>
34.3

$$$$
>  <Compound>
c1coc(-c2c3ccc(=[N+]4CCCCC4)cc-3oc3cc(N4CCCCC4)ccc23)c1

>  <Readout qualifier>
=

>  <TGI, µM>
0.435

$$$$
>  <Compound>
Cc1cn([C@@H]2C[C@H](CO)[C@@H](O)C2)c(=O)[nH]c1=O

>  <Readout qualifier>
>

>  <TGI, µM>
100

$$$$
>  <Compound>
Nc1ccccc1O.O.O=C(O)C1[O][Sb][O]C1C(=O)O (configuration not stated)

>  <Readout qualifier>
=

>  <TGI, µM>
35

$$$$
>  <Compound>
Cn1c(=O)c2c(nc(C(=N)SCC(=O)O)n2C)n(C)c1=O

>  <Readout qualifier>
>

>  <TGI, µM>
100

$$$$
>  <Compound>
CCCC/C(=C\C1=C(C)C(=O)C(OC)=C(OC)C1=O)C(=O)O

>  <Readout qualifier>
>

>  <TGI, µM>
100

$$$$
>  <Compound>
CCC1CN2CCc3cc(OC)c(OC)cc3C2CC1CC1c2cc(OC)c(OC)cc2CCN1C(=O)C1CCCN1 (configuration not stated)

>  <Readout qualifier>
=

>  <TGI, µM>
71.2

$$$$
>  <Compound>
Cc1ccc(CC[P+](=O)CCc2ccc(C)nc2)cn1

>  <Readout qualifier>
>

>  <TGI, µM>
100

$$$$
>  <Compound>
CCNC(=O)/C(=C/c1ccc(OC)cc1)c1cc(OC)c(OC)c(OC)c1

>  <Readout qualifier>
>

>  <TGI, µM>
100

$$$$
>  <Compound>
Nc1nc(Cl)cc(NCC2(CO)CCC(CCc3ccccc3)C2)n1 (configuration not stated)

>  <Readout qualifier>
=

>  <TGI, µM>
23.1

$$$$
>  <Compound>
NNC1=N/C(=C\c2ccco2)C(Cl)=N1

>  <Readout qualifier>
>

>  <TGI, µM>
100

$$$$
>  <Compound>
COC(C)(C)[C@@H](O)[C@H]1C[C@H](C)[C@@]2(CC[C@]3(C)[C@@H]2CC[C@@H]2[C@@]4(C)CC[C@@H](OC(C)=O)C(C)(C)[C@@H]4C[C@@H](OC4OC(COC(C)=O)C(O)C(O)C4O)[C@]23C)O1 (some centres not stated)

>  <Readout qualifier>
=

>  <TGI, µM>
25

$$$$
>  <Compound>
CC(=O)c1cccn1/C=C(\OC(=O)OC(C)(C)C)c1ccc[nH]1

>  <Readout qualifier>
>

>  <TGI, µM>
100

$$$$
>  <Compound>
COC(=O)C1=COC(C)C2CN3CCc4c([nH]c5ccccc45)C3CC12 (configuration not stated)

>  <Readout qualifier>
>

>  <TGI, µM>
100

$$$$
